Kindly state melting point for each of the entries shown.

Query Cc1ccc(CSc2nc3ccc(Br)cc3c(=O)n2-c2ccccc2)cc1 yields melting point of 164 to 166 °C

// sample CCCCCSc1nc2ccc(Br)cc2c(=O)n1-c1ccccc1 , its melting point was 99 to 101 °C

Kindly note the recorded melting point for O=c1c2cc(Br)ccc2nc(SCc2ccc([N+](=O)[O-])cc2)n1-c1ccccc1 , which is 231 to 233 °C

get_value(item= CCCCSc1nc2ccc(Br)cc2c(=O)n1-c1ccccc1 , readout=melting point) returns 128 to 130 °C

Entry Cc1cccc(CSc2nc3ccc(Br)cc3c(=O)n2-c2ccccc2)c1 , melting point reported as 101 to 103 °C

###

Kindly state IC50 for each of the entries shown.
- Tested on: MRC-5 normal cell line
- assay_remarks: MTT cytotoxic assay, normal cell line MRC-5
- Assay type: cell-based
- assay_conditions: Homo sapiens, MRC5, 3 repetitions, read-out: IC50 ± SD MRC-5

Short answer for Cc1ccc(CSc2nc3ccc(Br)cc3c(=O)n2-c2ccccc2)cc1 : IC50 was > 100 µM

Just so you know, measured IC50 for Cc1cccc(CSc2nc3ccc(Br)cc3c(=O)n2-c2ccccc2)c1 came out at > 100 µM

So for O=c1c2cc(Br)ccc2nc(SCc2ccccc2)n1-c1ccccc1 , the logged IC50 turned out to be > 100 µM

Entry O=c1c2cc(Br)ccc2nc(SCc2ccc([N+](=O)[O-])cc2)n1-c1ccccc1 ; IC50 = > 100 µM

Note to self: IC50 recorded for O=c1c2cc(Br)ccc2nc(SCc2ccc(Br)cc2)n1-c1ccccc1 was > 100 µM

Quick note, IC50 for O=c1c2cc(Br)ccc2nc(SCc2ccc(Cl)cc2)n1-c1ccccc1 landed at > 100 µM

The origin of these recorded values is paper PMC11225515.
